The reported measurements were obtained from patent US9073916B2.

Test system: SKOV3 cells
assayComment: Cellular growth inhibition (sulforhodamine B)
Format: cell-based, Human
setupConditions: Homo sapiens, SK-OV-3; Table 9; 24 hour exposure oxic; read-out: Cellular Growth Inhibition IC50 SKOV3 Oxic
Label Met when IC50 is strictly below 40 µM; otherwise label Not met.

- compound: "C#Cc1cccc(Nc2ncnc3cnc(NC(=O)/C=C/C[N+](C)(C)Cc4c([N+](=O)[O-])ncn4C)cc23)c1 [Compound 58]"
  className: "Not met"
- compound: "CN(C)C/C=C/C(=O)Nc1cc2c(Nc3ccc(F)c(C(F)(F)F)c3)ncnc2cn1 [Compound 170]"
  className: "Met"
- compound: "Cn1cnc([N+](=O)[O-])c1C[N+](C)(C)C/C=C/C(=O)Nc1cc2c(Nc3ccc(F)c(Br)c3)ncnc2cn1 [Compound 42]"
  className: "Met"
- compound: "C#Cc1cccc(Nc2ncnc3cnc(NC(=O)/C=C/CN(C)C)cc23)c1 [Compound 171]"
  className: "Met"
- compound: "Cn1cnc([N+](=O)[O-])c1C[N+](C)(C)C/C=C/C(=O)Nc1cc2c(Nc3ccc(F)c(C(F)(F)F)c3)ncnc2cn1 [Compound 50]"
  className: "Not met"
- compound: "CN(C)C/C=C/C(=O)Nc1cc2c(Nc3ccc(F)c(Br)c3)ncnc2cn1 [Compound 161]"
  className: "Met"
